The reported numbers originate from patent US20260217712A1.

- MEASUREMENT_NOTES: Initial solubility testing in solvents
- Type: physicochemical
- ASSAY_CONDITIONS: organic solvent or mixture, thermodynamic from solid, 50 vol of the sample's solvent; read-out: solubilization at 50 vol
OBSERVED_PROPERTY: solubility

Asked: Any idea what its solubility is? The molecule is Cc1cc(Nc2cc(N)ncn2)c(=O)n2c1C(=O)NC21CCC2(CC2)CC1
Given back: < 20 mg/mL

* * *

- MEASUREMENT_NOTES: Initial solubility testing in solvents
- Assay type: physicochemical
- ASSAY_CONDITIONS: organic solvent or mixture, thermodynamic from solid, 30 vol of the sample's solvent; read-out: solubilization at 30 vol
OBSERVED_PROPERTY: solubility

Asked: Any idea what its solubility is? The compound is Cc1cc(Nc2cc(N)ncn2)c(=O)n2c1C(=O)NC21CCC2(CC2)CC1
Given back: < 33.3 mg/mL

* * *

- MEASUREMENT_NOTES: Initial solubility testing in solvents
- Type: physicochemical
- ASSAY_CONDITIONS: organic solvent or mixture, thermodynamic from solid, 20 vol of the sample's solvent; read-out: solubilization at 20 vol
- Method: Structure (I) (20 mg) from Lot A (free form Pattern 1) was charged into HPLC vials, treated with solvent, 10 volumes at a time, until the material fully dissolved or a maximum of 50 volumes had been added. Once 50 volumes was reached without dissolution, the temperature was increased to 50° C. To each suspension, 1.1 molar equiv. […] The samples were analyzed by XRPD.
OBSERVED_PROPERTY: solubility

Asked: Any idea what its solubility is? The molecule is Cc1cc(Nc2cc(N)ncn2)c(=O)n2c1C(=O)NC21CCC2(CC2)CC1
Given back: < 50 mg/mL

* * *

- MEASUREMENT_NOTES: Gravimetric solubility measurements from competitive slurry samples
- Format: physicochemical
- ASSAY_CONDITIONS: organic solvent or mixture, thermodynamic from solid; Toluene, room temperature
OBSERVED_PROPERTY: solubility (µg/mL)
Numbers only here, please. The scale is µg/mL.

Asked: Any idea what its solubility is? The molecule is Cc1cc(Nc2cc(N)ncn2)c(=O)n2c1C(=O)NC21CCC2(CC2)CC1
Given back: 2300

* * *

- MEASUREMENT_NOTES: LogD
- Assay type: physicochemical
OBSERVED_PROPERTY: logD
Response field accepts a number only; no unit should be typed.

Asked: Any idea what its logD is? The compound is Cc1cc(Nc2cc(N)ncn2)c(=O)n2c1C(=O)NC21CCC2(CC2)CC1
Given back: 3.1

* * *

- MEASUREMENT_NOTES: Initial solubility testing in solvents
- Assay type: physicochemical
- ASSAY_CONDITIONS: 50 °C, organic solvent or mixture, thermodynamic from solid, 50 vol, 50° C.; read-out: solubilization upon heating to 50° C.
OBSERVED_PROPERTY: solubility

Asked: Any idea what its solubility is? The compound is Cc1cc(Nc2cc(N)ncn2)c(=O)n2c1C(=O)NC21CCC2(CC2)CC1
Given back: < 20 mg/mL

* * *

- MEASUREMENT_NOTES: Thermodynamic solubility in simulated media and buffers
- Assay type: physicochemical
- ASSAY_CONDITIONS: 25 °C, thermodynamic from solid; FaSSIF (pH 6.7); read-out: Thermodynamic solubility in simulated media, FaSSIF
- Experimental: The thermodynamic solubility for Pattern 11 was determined in 3 simulated media and two buffers. […]
OBSERVED_PROPERTY: solubility thermodynamic (µg/mL)
Numbers only here, please. The scale is µg/mL.

Asked: Any idea what its solubility thermodynamic is? The compound is Cc1cc(Nc2cc(N)ncn2)c(=O)n2c1C(=O)NC21CCC2(CC2)CC1
Given back: 6

* * *

- MEASUREMENT_NOTES: Gravimetric solubility measurements from competitive slurry samples
- Assay type: physicochemical
- ASSAY_CONDITIONS: organic solvent or mixture, thermodynamic from solid; IPA/Water (95:5), room temperature
OBSERVED_PROPERTY: solubility (µg/mL)
Numbers only here, please. The scale is µg/mL.

Asked: Any idea what its solubility is? The compound is Cc1cc(Nc2cc(N)ncn2)c(=O)n2c1C(=O)NC21CCC2(CC2)CC1
Given back: 3800

* * *

- MEASUREMENT_NOTES: High temperature solubility assessment
- Format: physicochemical
- Parameters: key: T = turbid solution; X = suspension
- ASSAY_CONDITIONS: 30 mg in 50 volumes of the sample's solvent, 60° C.
OBSERVED_PROPERTY: observation at 60° C.

>>> print(df.to_string())
                                   compound  result
0  Cc1cc(Nc2cc(N)ncn2)c(=O)n2c1C(=O)NC21CCC2(CC2)CC1 [Pattern 10-3]       X
1  Cc1cc(Nc2cc(N)ncn2)c(=O)n2c1C(=O)NC21CCC2(CC2)CC1 [Pattern 10-6]       T
2  Cc1cc(Nc2cc(N)ncn2)c(=O)n2c1C(=O)NC21CCC2(CC2)CC1 [Pattern 10-2]       X
3  Cc1cc(Nc2cc(N)ncn2)c(=O)n2c1C(=O)NC21CCC2(CC2)CC1 [Pattern 10-5]       X

* * *

- MEASUREMENT_NOTES: Static storage at 40° C./75% RH, XRPD and HPLC post storage
- Type: physicochemical
- ASSAY_CONDITIONS: 40° C./75% RH (elevated temperature and humidity)
- Experimental: Purity analysis was performed on an Agilent HP1100/Infinity II 1260 series system equipped with a diode array detector and using OpenLAB software. The full method details are provided below: Poorly Crystalline Structure (I) (from Lot A, Free Form Pattern 1, 30 mg) was dissolved in 50 volumes of THF:Water 9:1 at 60° C. in 13 vials, stirring at 500 RPM (small amount of debris present). […] All solids obtained were initially analyzed by XRPD and stored in glass HPLC vials for subsequent analysis. […]
Structures can show the parent of a compound that is named as a salt.
OBSERVED_PROPERTY: stability to storage at 40° C./75% RH (in words)

>>> df
                                   molecule             result
0  Cc1cc(Nc2cc(N)ncn2)c(=O)n2c1C(=O)NC21CCC2(CC2)CC1 [Tartrate Pattern 1]  stable to storage
1  Cc1cc(Nc2cc(N)ncn2)c(=O)n2c1C(=O)NC21CCC2(CC2)CC1 [HCl Patterns 1 and 3]  stable to storage
2  Cc1cc(Nc2cc(N)ncn2)c(=O)n2c1C(=O)NC21CCC2(CC2)CC1 [FUM Pattern 1]  stable to storage
3  Cc1cc(Nc2cc(N)ncn2)c(=O)n2c1C(=O)NC21CCC2(CC2)CC1 [SUL Pattern 1]  stable to storage

* * *

- MEASUREMENT_NOTES: Initial solubility testing in solvents
- Assay type: physicochemical
- ASSAY_CONDITIONS: organic solvent or mixture, thermodynamic from solid, 40 vol of the sample's solvent; read-out: solubilization at 40 vol
OBSERVED_PROPERTY: solubility

Asked: Any idea what its solubility is? The compound is Cc1cc(Nc2cc(N)ncn2)c(=O)n2c1C(=O)NC21CCC2(CC2)CC1 [Pattern 8-2]
Given back: < 25 mg/mL

* * *

- MEASUREMENT_NOTES: Thermodynamic solubility in simulated media and buffers
- Assay type: physicochemical
- ASSAY_CONDITIONS: FaSSIF, 25 °C, fassif, thermodynamic from solid, FaSSIF; 25° C./24 h; read-out: Solubility FaSSIF
OBSERVED_PROPERTY: solubility at 24 h (µg/mL)
Numbers only here, please. The scale is µg/mL.

Asked: Any idea what its solubility at 24 h is? The molecule is Cc1cc(Nc2cc(N)ncn2)c(=O)n2c1C(=O)NC21CCC2(CC2)CC1
Given back: 1.4

* * *

- MEASUREMENT_NOTES: High temperature solubility assessment
- Type: physicochemical
- Set-up: key: T = turbid solution; X = suspension
- ASSAY_CONDITIONS: 30 mg in 50 volumes of the sample's solvent, 60° C.
OBSERVED_PROPERTY: observation at 60° C.

                                   molecule  result
0  Cc1cc(Nc2cc(N)ncn2)c(=O)n2c1C(=O)NC21CCC2(CC2)CC1 [Pattern 10-7]       T
1  Cc1cc(Nc2cc(N)ncn2)c(=O)n2c1C(=O)NC21CCC2(CC2)CC1 [Pattern 10-8]       T
2  Cc1cc(Nc2cc(N)ncn2)c(=O)n2c1C(=O)NC21CCC2(CC2)CC1 [Pattern 10-1]       X
3  Cc1cc(Nc2cc(N)ncn2)c(=O)n2c1C(=O)NC21CCC2(CC2)CC1 [Pattern 10-4]       X

* * *

- MEASUREMENT_NOTES: pKa measurements
- Assay type: physicochemical
- ASSAY_CONDITIONS: read-out: acidic pKa (acidic center)
OBSERVED_PROPERTY: pKa
Response field accepts a number only; no unit should be typed.

Asked: Any idea what its pKa is? The compound is Cc1cc(Nc2cc(N)ncn2)c(=O)n2c1C(=O)NC21CCC2(CC2)CC1
Given back: 11.5
